# koff values compiled below
# target-or-system: T1, His-tagged human PD-1 protein (human, UniProt Q15116 25-170, limits assumed)
# T1 construct: SPR analyte; also called his-tagged antigen PD-1; not shown: His tag
# T1 sequence (Q15116 25-170 limits assumed): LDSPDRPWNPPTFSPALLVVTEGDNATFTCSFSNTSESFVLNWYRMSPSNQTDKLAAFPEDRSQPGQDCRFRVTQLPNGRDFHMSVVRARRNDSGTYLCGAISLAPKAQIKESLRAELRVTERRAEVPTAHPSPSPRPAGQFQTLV
# assay-info: SPR; Fab-SASA captured on immobilised BSA, his-tagged PD-1 as analyte
Your answer should be a plain number; it is taken to be in s⁻¹.

Completed entries (count: 2):
AS05617 (Fab) (Fab, V domains shown, Humanized Fab-SASA clone from the phage library) VH: EVQLVESGGGLVQPGGSLRLSCAASGFVFSRYDMAWVRQTPGKGLEWVSFISGGGSNTYYPDTVKGRFTISRDNSKNTLYLQMNSLRAEDTAVYYCISPYYYAMEYWGQGTTVTVSS VL: DIQMTQSPSSISTSVGDRVTITCKASQDVDTAVAWYQQKPGKSPKLLIYWASTRHTGVPSRFSGSGSGTDFTLTISSLQPEDFADYFCQQYSTFPWTFGGGTKVEIK: 3e-05
AS05618 (Fab, V domains shown, Humanized Fab-SASA clone from the phage library) VH: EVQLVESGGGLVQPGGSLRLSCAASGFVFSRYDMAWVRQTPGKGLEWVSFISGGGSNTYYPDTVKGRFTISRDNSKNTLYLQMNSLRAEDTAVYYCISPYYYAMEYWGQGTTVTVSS VL: DIQMTQSPSSISTSVGDRVTITCKASQDVDTAVAWYQQKPGKSPKLLIHWASTRHTGVPSRFSGSGSGTDFTLTISSLQPEDFADYFCQQYSTFPWTFGGGTKLEIK: 0.000151

Which koff value is on record for PD1-BM Ab (Fab) (Fab, V domains shown, Humanized Fab with all 14 back mutations; also called PD1-BM Fab) VH: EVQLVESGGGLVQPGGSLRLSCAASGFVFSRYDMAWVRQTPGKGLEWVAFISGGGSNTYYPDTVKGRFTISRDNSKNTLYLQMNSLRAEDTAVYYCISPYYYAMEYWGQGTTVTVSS VL: DIQMTQSPSSISTSVGDRVTITCKASQDVDTAVAWYQQKPGKSPKLLIHWASTRHTGVPSRFSGSGSGTDFTLTLSSVQPEDLADYFCQQYSTFPWTFGGGTKLEIK ? 1.78e-05

Which koff value is on record for AS05614 (Fab, V domains shown, Humanized Fab-SASA clone from the phage library) VH: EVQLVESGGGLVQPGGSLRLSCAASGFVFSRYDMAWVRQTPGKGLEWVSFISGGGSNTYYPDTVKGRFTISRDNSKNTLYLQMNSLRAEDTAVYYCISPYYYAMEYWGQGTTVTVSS VL: DIQMTQSPSSISTSVGDRVTITCKASQDVDTAVAWYQQKPGKSPKLLIHWASTRHTGVPSRFSGSGSGTDFTLTLSSVQPEDFATYFCQQYSTFPWTFGGGTKVEIK ? 0.000134

Which koff value is on record for AS05616 (Fab, V domains shown, Humanized Fab-SASA clone from the phage library) VH: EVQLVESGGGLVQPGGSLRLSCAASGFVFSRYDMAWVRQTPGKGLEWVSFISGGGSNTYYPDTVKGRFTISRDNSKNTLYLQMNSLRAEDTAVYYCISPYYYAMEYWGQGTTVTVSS VL: DIQMTQSPSSISTSVGDRVTITCKASQDVDTAVAWYQQKPGKSPKLLIHWASTRHTGVPSRFSGSGSGTDFTLTISSLQPEDFADYFCQQYSTFPWTFGGGTKVEIK ? 0.000105
